# Tested on: batrachotoxin (BTX) binding site of the sodium channel
# run description: Affinity to the batrachotoxin (BTX) binding site of the sodium channel
# Set-up: species or system rat
# details: [3H]-batrachotoxinin A20 α-benzoate 10 nM; synaptosomes from rat cerebral cortex; test concentration not given
# BTX inhibition (rat) (% inhibition) >= 40% gives satisfied, anything below gives not satisfied

Reference set (2 entries):
>  <compound>
CCCCN(C(=O)c1ccc(F)c(F)c1)c1nc2n(c1C(=O)NCCCc1ccccc1)CCCC2

>  <answer label>
satisfied

$$$$
>  <compound>
CN(C(=O)c1cccc2ccccc12)c1nc2n(c1C(=O)NC1CCN(Cc3ccc(C(F)(F)F)cc3)C1)CCCC2 (centres unmarked)

>  <answer label>
satisfied

$$$$

Has CN(C(=O)c1cccc(Cl)c1)c1nc2n(c1C(=O)N1CCC(O)(c3cccc(C(F)(F)F)c3)CC1)CCCC2 a recorded BTX inhibition (rat) (% inhibition) greater than or equal to 40%?
not satisfied

Further, for CN(C(=O)c1cccc2ccccc12)c1nc2n(c1C(=O)N1CCc3c([nH]c4ccccc34)C1)CCCC2 ?
not satisfied

Further, for CCc1ccc(NC(=O)c2c(N(C)C(=O)c3cccc(Cl)c3)nc3n2CCCC3)cc1 ?
satisfied

Further, for CCCCN(C(=O)c1ccc(F)c(F)c1)c1nc2n(c1C(=O)NCc1ccccc1OC(F)(F)F)CCCC2 ?
not satisfied

Further, for CN(C(=O)c1cccc2ccccc12)c1nc2n(c1C(=O)NC1CCCCC1)CCCC2 ?
satisfied

Further, for CCCCN(C(=O)c1cccc(Cl)c1)c1nc2n(c1C(=O)NCc1ccc(OC(F)(F)F)cc1)CCCC2 ?
satisfied

Further, for CCCCN(C(=O)c1cccc(Cl)c1)c1nc2n(c1C(=O)N[C@H](C(=O)OCc1ccccc1)C(C)C)CCCC2 ?
satisfied

Further, for CN(C(=O)c1cccc(Cl)c1)c1nc2n(c1C(=O)NC1CCN(Cc3c(Cl)cccc3Cl)C1)CCCC2 (centres unmarked) ?
satisfied

Further, for CCCCN(C(=O)c1ccc(F)c(F)c1)c1nc2n(c1C(=O)N1CCN(c3cc(Cl)ccc3C)CC1)CCCC2 ?
satisfied

Further, for CN(C(=O)c1cccc2ccccc12)c1nc2n(c1C(=O)NCc1cccc(Cl)c1Cl)CCCC2 ?
satisfied

Further, for CCCCN(C(=O)c1cccc(Cl)c1)c1nc2n(c1C(=O)NCCc1cc(OC)ccc1OC)CCCC2 ?
satisfied

Further, for CN(C(=O)Cc1ccccc1)c1nc2n(c1C(=O)N1CCN(CCCc3ccccc3)CC1)CCCC2 ?
satisfied

Further, for CN(C(=O)c1ccccc1)c1nc2n(c1C(=O)Nc1ccc3c(c1)OCO3)CCCC2 ?
not satisfied

Further, for CCCCN(C(=O)c1cccc(Cl)c1)c1nc2n(c1C(=O)NCc1cccc(C)c1C)CCCC2 ?
not satisfied

Further, for CN(C(=O)c1cccc2ccccc12)c1nc2n(c1C(=O)NCC(c1ccccc1)c1ccccc1)CCCC2 ?
satisfied

Further, for CCCCN(C(=O)c1ccc(F)c(F)c1)c1nc2n(c1C(=O)N1CCN(Cc3ccc(Cl)cc3)CC1)CCCC2 ?
satisfied

Further, for CCCCN(C(=O)c1cccc(Cl)c1)c1nc2n(c1C(=O)NC1CCc3ccccc31)CCCC2 (centres unmarked) ?
satisfied

Further, for CN(C(=O)c1ccccc1)c1nc2n(c1C(=O)NC(c1ccccc1)c1ccc(Cl)cc1)CCCC2 (centres unmarked) ?
satisfied

Further, for CN(C(=O)c1cccc(Cl)c1)c1nc2n(c1C(=O)NC1CCN(Cc3ccccc3OCc3ccccc3)C1)CCCC2 (centres unmarked) ?
satisfied

Further, for CCCCN(C(=O)c1cccc(Cl)c1)c1nc2n(c1C(=O)NC(C)CCc1ccccc1)CCCC2 (centres unmarked) ?
satisfied

Further, for CCCCN(C(=O)c1cccc(Cl)c1)c1nc2n(c1C(=O)N1CCN(c3ccccc3F)CC1)CCCC2 ?
satisfied

Further, for CCCCN(C(=O)c1ccc(F)c(F)c1)c1nc2n(c1C(=O)NCC1COc3ccccc3O1)CCCC2 (centres unmarked) ?
not satisfied

Further, for CCCCN(C(=O)c1cccc(Cl)c1)c1nc2n(c1C(=O)Nc1ccc3c(c1)OCCO3)CCCC2 ?
satisfied
